Data provenance is patent US6858210B1.

# System: affinity purified β2GPI-dependent antiphospholipid antibody
# protocol_text: Competitive inhibition ELISA: recombinant β2GPI proteins compete for antibody binding to coated full length recombinant β2GPI
# Design: species or system human
# test_settings: Ab 6509
quantity_measured: Max (maximum inhibition observed at concentrations tested) (%)

{"molecule": "---45: recombinant β2GPI deletion mutant with domains 4, 5 (protein) GREVKCPFPSRPDNGFVNYPAKPTLYYKDKATFGCHDGYSLDGPEEIECTKLGNWSAMPSCKASCKLPVKKATVVYQGERVKIQEKFKNGMLHGDKVSFFCKNKEKKCSYTEDAQCIDGTIEVPKCFKEHSSLAFWKTDASDVKPCGHHHHHH", "observed": 20}
{"molecule": "1234-: recombinant β2GPI deletion mutant with domains 1, 2, 3, 4 (protein) GRTCPKPDDLPFSTVVPLKTFYEPGEEITYSCKPGYVSRGGMRKFICPLTGLWPINTLKCTPRVCPFAGILENGAVRYTTFEYPNTISFSCNTGFYLNGADSAKCTEEGKWSPELPVCAPIICPPPSIPTFATLRVYKPSAGNNSLYRDTAVFECLPQHAMFGNDTITCTTHGNWTKLPECREVKCPFPSRPDNGFVNYPAKPTLYYKDKATFGCHDGYSLDGPEEIECTKLGNWSAMPSCGHHHHHH", "observed": 80}
{"molecule": "recombinant β2GPI domain 5 with GlyHis6 (----5) (protein) GRASCKLPVKKATVVYQGERVKIQEKFKNGMLHGDKVSFFCKNKEKKCSYTEDAQCIDGTIEVPKCFKEHSSLAFWKTDASDVKPCGHHHHHH", "observed": 10}
